assay: Measurement of log P values by HPLC on reversed phase columns (EEC directive 79/831 Annex V.A8); format: physicochemical; conditions: method [a]: LC-MS at pH 2.7, 0.1% formic acid in water / acetonitrile, gradient 10% to 95% acetonitrile
# logP per entry

- Molecule: "CC1CC(C)(C)c2c(I)ccc(N)c21 (centres unmarked)"
  logP: "4.1[a]"
- Molecule: "Nc1cccc2c1CC1(CCCC1)C2"
  logP: "2.1[a]"
- Molecule: "CC1CC2(CC2)c2cccc(N)c21 (racemic)"
  logP: "1.93[a]"
- Molecule: "CC1CC(C(C)C)c2cccc(N)c21 (centres unmarked) [III-a-19]"
  logP: "2.86[a]"
- Molecule: "Brc1cccc2c1CCC21CC1"
  logP: "4.86[a]"
- Molecule: "CC1CC(CC(C)(C)C)c2cccc(N)c21 (centres unmarked)"
  logP: "3.83[a]"
- Molecule: "CON=C1c2cccc(N)c2CC1(C)C.Cl"
  logP: "2.08[a]"
- Molecule: "CC(C)CC1CCc2c(N)cccc21 (racemic)"
  logP: "2.64[a]"
- Molecule: "CCON=C1CCc2c(Br)cccc21 (single isomer, unassigned) [III-b-23]"
  logP: "4.9[a]"
- Molecule: "CCCCON=C1CCc2c(N)cccc21.Cl"
  logP: "2.86[a]"
- Molecule: "CC(C)CC1CCc2c(Br)cccc21 (centres unmarked)"
  logP: "6.57[a]"

* * *

system: Puccinia recondita; test: In vivo preventive test on Puccinia recondita (brown rust on wheat); conditions: dose 500 ppm; wheat plants sprayed 24 h before contamination; grading 12 days after contamination
Values of Eff. % greater than or equal to 90% map to MET; values below map to NOT MET.

- Compound: "Cn1nc(C(F)F)c(C(=O)Nc2cccc3c2CC(C2CCCC2)C3)c1Cl (stereo not drawn)"
  Label Value: "MET"
- Compound: "CC1CC2(CC2)c2cccc(NC(=S)c3c(C(F)F)nn(C)c3Cl)c21 (stereo not drawn)"
  Label Value: "MET"
- Compound: "CC(C)C1Cc2cccc(NC(=O)c3c(C(F)F)nn(C)c3Cl)c2C1C (stereo not drawn) [Example 56]"
  Label Value: "NOT MET"
- Compound: "CC1CC2(CC2)c2cccc(NC(=O)c3c(C(F)F)nn(C)c3Br)c21 (stereo not drawn)"
  Label Value: "MET"
- Compound: "CC1CC(C)(C)c2c(C3CC3)ccc(NC(=O)c3c(C(F)F)nn(C)c3F)c21 (stereo not drawn)"
  Label Value: "MET"
- Compound: "CC(C)CC1CCc2c(NC(=O)c3c(C(F)F)nn(C)c3Cl)cccc21 (stereo not drawn) [Example 66]"
  Label Value: "MET"
- Compound: "CC1c2cccc(NC(=O)c3c(C(F)F)nn(C)c3Cl)c2CC12CCCC2 (stereo not drawn)"
  Label Value: "MET"
- Compound: "CC1CCc2cccc(NC(=O)c3c(C(F)F)nn(C)c3Cl)c21 (stereo not drawn)"
  Label Value: "MET"
- Compound: "CON=C1CC(C)c2c(NC(=O)c3c(C(F)F)nn(C)c3F)cccc21 (stereo not drawn)"
  Label Value: "NOT MET"
- Compound: "CC1c2c(NC(=O)c3c(C(F)F)nn(C)c3Br)cccc2C(C)(C)C1C (stereo not drawn)"
  Label Value: "MET"
- Compound: "CC1Cc2c(NC(=O)c3c(C(F)F)nn(C)c3Br)cccc2C1(C)C (stereo not drawn)"
  Label Value: "NOT MET"
- Compound: "CON=C1CCc2c(NC(=O)c3c(C(F)F)nn(C)c3F)cccc21"
  Label Value: "MET"
- Compound: "CON=C1CC(C)c2c(NC(=O)c3c(C(F)F)nn(C)c3Cl)cccc21 (stereo not drawn)"
  Label Value: "NOT MET"
- Compound: "CON=C1c2cccc(NC(=O)c3c(C(F)F)nn(C)c3Cl)c2CC1(C)C (mixture of isomers)"
  Label Value: "NOT MET"
- Compound: "CCC1(CC)Cc2c(NC(=O)c3c(C(F)F)nn(C)c3F)cccc2C1C (stereo not drawn)"
  Label Value: "MET"
- Compound: "CC(C)C1Cc2c(NC(=O)c3c(C(F)F)nn(C)c3Br)cccc2C1(C)C (stereo not drawn)"
  Label Value: "MET"
